- Tested on: HCT-15 colon
- Experimental Details: NCI-60 one-dose screen, 48 h (100 = growth as untreated, 0 = no growth, -100 = all killed)
- Condition: 10 µM
Compounds without any hit were thinned out: in the full panel of roughly 83,000, 20% have a hit.
Response key: true (1) means growth >= 80%; false (0) means growth < 80%.

Record excerpt, results attached:
Molecule	Class Label
O=C(Nc1cccc(-n2cc(-c3ccncc3)c(-c3ccc(O)c(Cl)c3)n2)c1)c1cc(C(F)(F)F)cc(C(F)(F)F)c1	false (0)
NC(=S)N=Nc1c(O)c2ccccc2c2ccccc12	false (0)
Nc1nccc(Nc2ccccc2)n1	true (1)
COc1ccc2c(c1)-c1c(c3cc(OC)ccc3n(CCN(C)C)c1=O)C2=O	false (0)
CC(=O)C1CCC2C3CC(F)C4=CC(=O)CCC4(C)C3C(O)CC12C (stereo not given)	true (1)
COc1ccc(-c2nc3sc(-c4ccccc4)c(-c4ccccc4)n3c2/C=C/C(=O)c2ccccn2)cc1	false (0)
Cc1cc(Cl)nc(N(CCCNc2ccnc3cc(Cl)ccc23)Cc2cccs2)n1	false (0)
CCC(=O)N1C/C(=C/c2ccc(OC)cc2)C(=O)/C(=C/c2ccc(OC)cc2)C1	false (0)

Input line: Has O=C(Nc1cccc(-n2cc(-c3ccncc3)c(-c3ccc(O)c(Cl)c3)n2)c1)c1ccc(Cl)c(Cl)c1 a recorded growth greater than or equal to 80%?
Output line: false (0)

Input line: Has CC(C)=NNc1ncnc2c1ncn2C1OC(CO)C(O)C1O (stereo not given) a recorded growth greater than or equal to 80%?
Output line: false (0)

Input line: Has CSc1nn(-c2ccccc2)c2ncnc(Oc3ccc(C)cc3)c12 a recorded growth greater than or equal to 80%?
Output line: true (1)

Input line: Has CCOC(=O)c1ccoc1 a recorded growth greater than or equal to 80%?
Output line: true (1)

Input line: Has CC(C)(C)NC/C(=C\c1ccccc1)C(=O)c1ccccc1 a recorded growth greater than or equal to 80%?
Output line: false (0)
